Exercise: state measured inhibition for each of the compounds provided.
Target: Alpha-2C adrenergic receptor (Homo sapiens)
Sequence (whole entry): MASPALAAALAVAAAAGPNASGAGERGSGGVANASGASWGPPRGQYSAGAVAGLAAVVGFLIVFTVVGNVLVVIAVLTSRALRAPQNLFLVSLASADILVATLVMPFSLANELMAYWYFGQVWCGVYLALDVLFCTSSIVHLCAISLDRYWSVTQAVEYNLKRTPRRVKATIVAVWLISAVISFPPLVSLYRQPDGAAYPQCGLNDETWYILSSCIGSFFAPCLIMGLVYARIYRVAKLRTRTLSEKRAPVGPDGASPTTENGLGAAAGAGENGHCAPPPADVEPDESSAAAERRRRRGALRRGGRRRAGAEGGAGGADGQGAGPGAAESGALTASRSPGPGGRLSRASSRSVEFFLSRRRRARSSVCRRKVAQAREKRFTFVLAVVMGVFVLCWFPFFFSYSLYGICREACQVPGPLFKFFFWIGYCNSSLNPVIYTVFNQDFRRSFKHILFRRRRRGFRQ
Details: Compound concentration 10 µM
Description: PDSP Primary Binding target: ADRA2C - Compounds are tested at 10 uM concentration, plate are incubated at room temperature in the dark for 90 minutes. Reaction are stopped by vacuum filtration onto 0.3% polyethyleneimine soaked filter mats using Filtermate harvester. Scintilation cocktail is then melted onto microwave-dried filters on a hot plate and the radio activity is counted in Microbia counter.
Answers are plain numbers, in %.

Here is how some compounds turned out for inhibition.
CC(C)C[C@H](NC(=O)N1CCCCCC1)C(=O)N[C@H](Cc1cn(C)c2ccccc12)C(=O)N[C@H](Cc1ccccn1)C(=O)O 0.48
CCCCN(CC)c1nc(C)nc2c1c(C)cn2-c1c(C)cc(C)cc1C -1.9
CN(C)C(=O)N[C@H]1CC[C@H](CCN2CCN(c3cccc(Cl)c3Cl)CC2)CC1 98
CCCCc1nc(Cl)c(CO)n1Cc1ccc(-c2ccccc2-c2nnn[nH]2)cc1 3.84
C[N+]1(C)[C@@H]2C[C@@H](OC(=O)C(O)(c3cccs3)c3cccs3)C[C@H]1[C@@H]1O[C@@H]12 -0.27

// each compound listed below needs its inhibition
1. O=C(Cc1ccc(Cl)c(Cl)c1)N1CCCC[C@H]1CN1CCCC1
2. Cc1cc(NC(=O)Nc2ccc(N(C)C)cc2)c2cc(F)cc(F)c2n1
3. NC[C@@H]1O[C@H](C23CC4CC(CC(C4)C2)C3)Cc2c1ccc(O)c2O
4. COC1CCN(c2cccc(-c3cc(NC(C)=O)nc(-n4nc(C)cc4C)n3)n2)CC1
5. CCCCCCCCCCCCC/C=C/[C@@H](O)[C@@H](N)COP(=O)(O)O
6. Cc1cc([C@@H](C)Nc2cccc(-c3cc(C)c(C(=O)N[C@@H](C)C(=O)O)c(C)c3)c2)ccc1Cl

Response given:
1. 24.5
2. 9.7
3. 102
4. 26.3
5. -4.87
6. -1.32

Challenge: Which value of inhibition has been reported for Cc1nc2sccn2c(=O)c1CCN1CCC(=C(c2ccc(F)cc2)c2ccc(F)cc2)CC1 in the records?
Response given: 94.9

###

Exercise: state measured inhibition for each of the compounds provided.
Molecular target: Alpha-1D adrenergic receptor (Homo sapiens)
Settings: Compound concentration 10 µM
Description: PDSP Primary Binding target: ADRA1D - Compounds are tested at 10 uM concentration, plate are incubated at room temperature in the dark for 90 minutes. Reaction are stopped by vacuum filtration onto 0.3% polyethyleneimine soaked filter mats using Filtermate harvester. Scintilation cocktail is then melted onto microwave-dried filters on a hot plate and the radio activity is counted in Microbia counter.
Numbers only, in %.

// each compound listed below needs its inhibition
1. C[N+]1(C)[C@@H]2C[C@@H](OC(=O)C(O)(c3cccs3)c3cccs3)C[C@H]1[C@@H]1O[C@@H]12
2. COc1ccc(Br)cc1S(=O)(=O)NC(=O)/C=C/c1ccccc1Cc1ccc2ccccc2c1
3. Cc1cc(C)cc(C(=O)N(C)[C@H](Cc2ccc(-c3ccccc3)cc2)C(=O)N[C@@H](Cc2c[nH]c3ccccc23)C(=O)O)c1
4. CCCCN(CC)c1nc(C)nc2c1c(C)cn2-c1c(C)cc(C)cc1C
5. OC1(c2ccc(Cl)cc2)CCN(Cc2c[nH]c3ccccc23)CC1
6. Clc1ccc(CCCOCCCN2CCCCC2)cc1

Response given:
1: 13.1; 2: 16.2; 3: 7.51; 4: 16.5; 5: 21.4; 6: 0.84

###

Target: UniProt P08912
Sequence (P08912 whole entry): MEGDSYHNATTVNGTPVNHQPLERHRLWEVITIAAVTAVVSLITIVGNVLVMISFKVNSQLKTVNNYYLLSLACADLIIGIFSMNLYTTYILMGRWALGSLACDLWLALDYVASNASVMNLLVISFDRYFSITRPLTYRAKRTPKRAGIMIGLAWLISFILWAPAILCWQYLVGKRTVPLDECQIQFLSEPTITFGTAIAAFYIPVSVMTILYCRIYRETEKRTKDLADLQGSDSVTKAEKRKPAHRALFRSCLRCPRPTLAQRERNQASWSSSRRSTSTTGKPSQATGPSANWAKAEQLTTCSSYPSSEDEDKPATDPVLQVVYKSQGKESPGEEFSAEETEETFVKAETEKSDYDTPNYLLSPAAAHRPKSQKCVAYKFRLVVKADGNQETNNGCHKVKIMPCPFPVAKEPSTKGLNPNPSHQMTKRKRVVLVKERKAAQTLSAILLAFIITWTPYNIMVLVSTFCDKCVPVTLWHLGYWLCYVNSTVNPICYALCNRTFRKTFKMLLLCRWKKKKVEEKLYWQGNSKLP
Details: Compound concentration 10 µM
Description: PDSP Primary Binding target: CHRM5 - Compounds are tested at 10 uM concentration, plate are incubated at room temperature in the dark for 90 minutes. Reaction are stopped by vacuum filtration onto 0.3% polyethyleneimine soaked filter mats using Filtermate harvester. Scintilation cocktail is then melted onto microwave-dried filters on a hot plate and the radio activity is counted in Microbia counter.
Exercise: state measured inhibition for each of the compounds provided.
Give bare numbers, in %.

compound	reported.metric	endpoint.value
CN1C(=O)[C@@H](NC(=O)c2cc3ccccc3[nH]2)N=C(c2ccccc2)c2ccccc21	inhibition	-5.02
S=C(NCCCc1c[nH]cn1)NCCCN(Cc1ccc(Cl)c(Cl)c1)c1ccc(Br)cn1	inhibition	87.6
CCc1cc(C(C)=O)c(O)cc1OCCCCCC(C)(C)c1nn[nH]n1	inhibition	47.9
CN(C)C(=O)N[C@H]1CC[C@H](CCN2CCN(c3cccc(Cl)c3Cl)CC2)CC1	inhibition	59.3
C[N+]1(C)[C@@H]2C[C@@H](OC(=O)C(O)(c3cccs3)c3cccs3)C[C@H]1[C@@H]1O[C@@H]12	inhibition	97.4
c1cc(CN2CCCNCCNCCCNCC2)ccc1CN1CCCNCCNCCCNCC1	inhibition	1.58

// each compound listed below needs its inhibition
1. N#Cc1cccc(C(=O)Nc2cc(-c3ccccc3)nn2-c2ccccc2)c1
2. C[C@@H](N)Cc1c[nH]cn1
3. C[C@H](NC[C@H](O)CP(=O)(O)CC1CCCCC1)c1ccc(Cl)c(Cl)c1

Response given:
[2.45, -5.67, 16.6]

// each compound listed below needs its inhibition
1. O=C(O)C1CN(Cc2ccc(OCc3ccc(Cl)c(Cl)c3)cc2)C1
2. CCC[C@H](Oc1cc(C)c(-n2cc(C(F)(F)F)cn2)c(C)c1)c1ccc(C(=O)NCCC(=O)O)cc1
3. CCc1ccc(OCc2ccccc2C(=O)Nc2ccc3nc(C)cc(N)c3c2)cc1
4. CCc1cc2c(c(CC)n1)CCC(=O)N2Cc1ccc(-c2ccccc2-c2nnn[nH]2)cc1
5. CC(C)NCC(O)COc1cccc2[nH]ccc12 (stereo unspecified)
6. CNC[C@H](O)c1cccc(O)c1
7. CCc1nn(CCCN2CCN(c3cccc(Cl)c3)CC2)c(=O)n1CCOc1ccccc1
8. OC1(c2ccc(Cl)cc2)CCN(Cc2c[nH]c3ccccc23)CC1

Response given:
1: -2.07; 2: 70.1; 3: 24; 4: -1.14; 5: 10.5; 6: -2.82; 7: 30.8; 8: 70.8

// each compound listed below needs its inhibition
1. COC(=O)C1=C(C)NC(C)=C(C(=O)OCCCN2CCC(c3ccccc3)(c3ccccc3)CC2)[C@H]1c1cccc([N+](=O)[O-])c1
2. CCc1cc2c(cc1CC)CC(NC[C@H](O)c1ccc(O)c3[nH]c(=O)ccc13)C2
3. N#Cc1c[nH]c2c(C(=O)N3CCN(CCc4ccc(F)cc4)CC3)cccc12
4. CCOC(=O)c1cc(C#N)c(N2CCC(C(=O)NS(=O)(=O)Cc3ccccc3)CC2)nc1C

Response given:
89.6
37.8
-9.78
28.6

###

Exercise: state measured inhibition for each of the compounds provided.
Target: Sigma non-opioid intracellular receptor 1 (Homo sapiens)
Settings: Compound concentration 10 µM
Description: PDSP Primary Binding target: SIGMAR1 - Compounds are tested at 10 uM concentration, plate are incubated at room temperature in the dark for 90 minutes. Reaction are stopped by vacuum filtration onto 0.3% polyethyleneimine soaked filter mats using Filtermate harvester. Scintilation cocktail is then melted onto microwave-dried filters on a hot plate and the radio activity is counted in Microbia counter.
Answers are plain numbers, in %.

Here is how some compounds turned out for inhibition.
compound	inhibition / %
CCCCCNC(=N)N/N=C/c1c[nH]c2ccc(OC)cc12	96.6
C[N+]1(C)[C@@H]2C[C@@H](OC(=O)C(O)(c3cccs3)c3cccs3)C[C@H]1[C@@H]1O[C@@H]12	32.7
S=C(NCCCc1c[nH]cn1)NCCCN(Cc1ccc(Cl)c(Cl)c1)c1ccc(Br)cn1	1.54

// each compound listed below needs its inhibition
1. Nc1nc2c(c(N3CCNCC3)n1)CCC1=C2[C@@H]2CCCC[C@@H]2O1
2. Cc1nc(-c2ccc(-c3ccc(C(=O)N4CCc5cc6c(cc54)C4(CCN(C)CC4)CO6)cc3)c(C)c2)no1
3. C[C@@H](NCCc1ccc(O)cc1)[C@@H](O)c1ccc(O)cc1 (relative stereo)
4. CCCCCCCCCCCCCCCCOC[C@H](COP(=O)([O-])OCC[N+](C)(C)C)OC(C)=O
5. OC[C@H]1O[C@@H](n2cnc3c(NC4CCCC4)ncnc32)[C@H](O)[C@@H]1O
6. COC(=O)[C@H]1[C@H]2C[C@H]3c4[nH]c5ccccc5c4CCN3C[C@H]2CC[C@@H]1O
7. COc1cc2c(CCNC(C)=O)c[nH]c2cc1Cl

Response given:
[86.4, 75.2, 75, 7.97, 51.9, 63.2, 5.27]

###

Molecular target: 5-hydroxytryptamine receptor 3A (Homo sapiens)
Settings: Compound concentration 10 µM
Description: PDSP Primary Binding target: HTR3A - Compounds are tested at 10 uM concentration, plate are incubated at room temperature in the dark for 90 minutes. Reaction are stopped by vacuum filtration onto 0.3% polyethyleneimine soaked filter mats using Filtermate harvester. Scintilation cocktail is then melted onto microwave-dried filters on a hot plate and the radio activity is counted in Microbia counter.
Exercise: state measured inhibition for each of the molecules provided.

CN1C[C@H](C(=O)N[C@]2(C)O[C@@]3(O)[C@@H]4CCCN4C(=O)[C@H](Cc4ccccc4)N3C2=O)C[C@@H]2c3cccc4[nH]cc(c34)C[C@H]21 1.05%
NCCc1cn(S(=O)(=O)c2c(Cl)nc3sccn23)c2ccccc12 79.2%
O=C(O)C1CN(Cc2ccc(-c3nc4cc(Cc5ccccc5F)ccc4s3)c(F)c2)C1 -3.55%
Brc1c(NC2=NCCN2)ccc2nccnc12 -5.05%
CN1CCC(C(=O)c2cccc(NC(=O)c3c(F)cc(F)cc3F)n2)CC1 20.9%
CCCn1c(=O)c2[nH]c(-c3cnn(Cc4cccc(C(F)(F)F)c4)c3)nc2n(CC)c1=O -4.02%
COc1cc2nc(N3CCN(C(=O)c4ccco4)CC3)nc(N)c2cc1OC 2.09%
S=C(NCCCc1c[nH]cn1)NCCCN(Cc1ccc(Cl)c(Cl)c1)c1ccc(Br)cn1 33.5%
O=C1N/C(=N/c2ccccc2F)S/C1=C\c1ccc(C(=O)O)cc1 -3.21%
Nc1nc(NCCc2ccc(O)cc2)nc2nc(-c3ccco3)nn12 1.4%

// each molecule listed below needs its inhibition
1. N#Cc1ccc2[nH]cc(CCCCN3CCN(c4ccc5oc(C(N)=O)cc5c4)CC3)c2c1
2. Cc1cc(C(=O)N2Cc3cnn(C)c3Nc3ccccc32)ccc1CNC(=O)N1CCC[C@H]1C(=S)N1CCCN(C)CC1
3. CC(C)[C@H](CO)Nc1nc(Nc2cccc(Cl)c2)c2ncn(C(C)C)c2n1
4. Clc1cccc(Cl)c1NC1=NCCN1
5. Cc1nc(-c2ccc(-c3ccc(C(=O)N4CCc5cc6c(cc54)C4(CCN(C)CC4)CO6)cc3)c(C)c2)no1

Response given:
46.7%
25.9%
25.4%
5.96%
43.9%

// each molecule listed below needs its inhibition
1. N[C@H](C(=O)O)c1ccc(C(=O)O)c(C(=O)O)c1
2. Cc1cc(C)c(N)c(C#Cc2cccc(F)c2)n1
3. c1cc(CN2CCCNCCNCCCNCC2)ccc1CN1CCCNCCNCCCNCC1
4. FC(F)(F)c1cccc(-c2noc(-c3cc(-c4ccccc4)c(C(F)(F)F)s3)n2)c1
5. CCCCCNC(=N)N/N=C/c1c[nH]c2ccc(OC)cc12

Response given:
1: 1.09%; 2: -2.76%; 3: 21.9%; 4: 0.39%; 5: 70.2%
